PROCEDURE_TEXT: NOD1 signaling inhibitors, primary screen, cell-based, luminescence, uHTS (AID 1578);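 also: HEK-293T reporter cells stimulated with the NOD1 agonist gamma-tri-DAP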
RECORDED_CONDITIONS: NOD1-driven NF-kB luciferase reporter cells, at 4 µM, hits give high values
In all, about 290,000 compounds went through this assay and about 3,000 (1%) were called active. The entries come from a sample that favours actives as a whole.
VALUE_TYPE: inhibition (%)
Report as a plain number; the unit % is understood.

Below are worked cases with known answers.
# COMPOUND, VALUE_TYPE, NUMERIC_RESULT
records = [
    ("CN(C[C@H](CC1CCCCC1)N(C[C@H](Cc1ccccc1)N(CCc1ccccc1)N=O)N=O)N=O", "inhibition", -18.5),
    ("C(=N\\Nc1nc2ccccc2[nH]1)/c1ccccn1", "inhibition", 59.4),
    ("CNc1ccn(C2CCCO2)c(=O)n1 (stereo not given)", "inhibition", 1.2),
    ("O=C(CNC(=O)c1cccc(OC(F)F)c1)OCc1cc(=O)n2cc(Br)ccc2n1", "inhibition", 4.7),
]

Please turn your attention to the following entry.
Query: Give the reported value of inhibition for this record: CC1(C)CC(N2CCCC2)=CC(=[N+]2CCCC2)C1
Reply: 27.8
